target: activated human MMP13 (human, UniProt P45452 104-471); assay: cell-based or functional assay
Listed binders paired with reported potency, human fluorogenic peptide assay
// return numeric value only (unit: pM, not printed)

Worked set:
binder	potency, human fluorogenic peptide assay, pM
C010100688 (bispecific antibody) EVQLVESGGGLVQPGGSLRLSCAASGSIFSINAMGWYRQAPGKQRELVAAISSGGSTYYADSVKGRFTISRDNSKNTVYLQMNSLRPEDTAVYYCNAAVDASRGLPYELYYYWGQGTLVTVSSGGGGSGGGGSGGGGSGGGGSGGGGSGGGGSGGGGSEVQLVESGGGLVQPGGSLRLSCAASGSTFIINVVRWYRRAPGKQRELVATISSGGNANYVDSVRGRFTISRDNSKNTVYLQMNSLRPEDTAVYYCNVPTTHYGGVYYGPYWGQGTLVTVSS	927
C010100101 (VHH) VHH: EVQLVESGGGLVQPGGSLRLSCAASGFTLAYYSIGWFRQAPGKEREGVSCISSGIDGSTYYADSVKGRFTISRDNAKNTMYLQMNNLKPEDTGVYYCAADPSHYYSEYDCGYYGMDYWGKGTLVTVSS	3920

The record that follows has no potency, human fluorogenic peptide assay shown yet.
Ask: Query: potency, human fluorogenic peptide assay; subject: C010100080 (bispecific antibody) EVQLVESGGGLVQPGGSLRLSCAASGRTFSSYAMGWFRQAPGKEREFVAAISWSGGSTYYADSVKGRFTISRDNSKNTVYLQMNSLRPEDTAVYYCTAALAVYGPNRYRYGPVGEYNYWGQGTLVTVSSGGGGSGGGGSGGGGSGGGGSGGGGSGGGGSGGGGSEVQLVESGGGSVQAGGSLRLSCAASGSTFSRYSMNWYRQAPGKQREFVAGISVGRITNYAVSVRGRFTISRDNAEGTGYLQMNSLKPEDTAVYYCNAGGLQGYWGLGTLVTVSSGAADYKDHDGDYKDHDIDYKDDDDKGAAHHHHHH
Reply: 488
